Value source: patent US20180030151A1

target: recombinant human TFPI (tissue factor pathway inhibitor) (human, UniProt P10646 29-304); test: cell-based or functional assay
quantity kind: A405, TF/FVIIa/FX complex assay, Ab 100 nM

binder	measured number
clone 1023 (antibody, V domains shown, scFv on yeast at selection; human IgG4/kappa IgG as purified) VH: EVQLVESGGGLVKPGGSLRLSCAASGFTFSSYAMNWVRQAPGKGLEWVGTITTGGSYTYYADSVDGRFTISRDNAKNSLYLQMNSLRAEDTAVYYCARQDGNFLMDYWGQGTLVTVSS VL: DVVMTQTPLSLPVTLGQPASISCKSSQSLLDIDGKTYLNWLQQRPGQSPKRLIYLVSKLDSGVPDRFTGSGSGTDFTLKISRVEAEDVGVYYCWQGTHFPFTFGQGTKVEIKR	0.846
clone 13 (antibody, V domains shown) VH: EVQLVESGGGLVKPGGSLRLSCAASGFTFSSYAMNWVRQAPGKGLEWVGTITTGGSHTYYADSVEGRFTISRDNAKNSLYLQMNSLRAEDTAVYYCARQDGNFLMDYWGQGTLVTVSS VL: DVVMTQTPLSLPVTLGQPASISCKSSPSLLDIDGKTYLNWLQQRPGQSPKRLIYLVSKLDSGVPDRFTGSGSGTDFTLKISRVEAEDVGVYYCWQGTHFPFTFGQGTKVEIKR	0.859
clone 12 (antibody, V domains shown, human IgG4/kappa IgG as purified; also called No. 12 antibody) VH: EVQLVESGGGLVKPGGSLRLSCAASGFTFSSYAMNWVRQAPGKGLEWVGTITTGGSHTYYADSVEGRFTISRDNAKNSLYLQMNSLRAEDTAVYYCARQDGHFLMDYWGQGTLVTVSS VL: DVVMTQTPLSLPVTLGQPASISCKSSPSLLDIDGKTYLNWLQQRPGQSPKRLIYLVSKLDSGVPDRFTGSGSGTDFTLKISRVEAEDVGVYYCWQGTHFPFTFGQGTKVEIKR	0.847
clone 1202 (antibody, V domains shown, scFv on yeast at selection; human IgG4/kappa IgG as purified; also called No. 1202 antibody) VH: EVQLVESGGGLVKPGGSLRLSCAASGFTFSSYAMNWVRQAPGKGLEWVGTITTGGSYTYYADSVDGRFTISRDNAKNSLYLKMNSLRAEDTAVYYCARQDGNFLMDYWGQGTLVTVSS VL: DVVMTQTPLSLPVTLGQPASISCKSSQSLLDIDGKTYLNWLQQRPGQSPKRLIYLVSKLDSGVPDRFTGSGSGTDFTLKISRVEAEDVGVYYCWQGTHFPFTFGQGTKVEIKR	0.859
